Test: Toxicity liver stage against HepG2, at 10uM
Format: cell-based
Parameters: test concentration 10 uM, cell line HepG2-A16-CD81EGFP
Settings: human, HepG2-A16-CD81EGFP cells; read-out: INHIBITION
Each item that follows carries a reported cytotoxicity at 10 µM.
Answer format: numeric, % implied, no suffix.

O=C(Cn1cc(C2CC2)nn1)N(Cc1ccco1)CC1CCCO1 (configuration not stated) : 0.0636
CC(NC(=O)CNc1cc2c(cc1Cl)NC(=O)CO2)c1ccco1 (configuration not stated) : -0.0162
CS(=O)(=O)NCc1noc2c1CN(C(=O)C1CC1)CC2 : -107
CC(=O)N1CCC(c2cc(Nc3ncccn3)nc(C)n2)C1 (configuration not stated) : -27.7
CCCn1nccc1-c1cc(C2CCN(S(C)(=O)=O)CC2)ccn1 : -6.94
O=C(c1ccc[nH]1)N1CCOCC2(C1)CN(c1ccccc1)C(=O)CO2 (configuration not stated) : -1.05

// switching to the query molecule
State, in one line, measured cytotoxicity at 10 µM of CN(C)C(C(=O)NCC1(Cn2cccn2)CC1)c1ccc(F)cc1 (configuration not stated)
3.65
